This section presents compounds with their documented DC50 values.
- measured.target: Ikaros (Homo sapiens, UniProt Q13422+Q96SW2)
- Sequence (Q13422 whole entry): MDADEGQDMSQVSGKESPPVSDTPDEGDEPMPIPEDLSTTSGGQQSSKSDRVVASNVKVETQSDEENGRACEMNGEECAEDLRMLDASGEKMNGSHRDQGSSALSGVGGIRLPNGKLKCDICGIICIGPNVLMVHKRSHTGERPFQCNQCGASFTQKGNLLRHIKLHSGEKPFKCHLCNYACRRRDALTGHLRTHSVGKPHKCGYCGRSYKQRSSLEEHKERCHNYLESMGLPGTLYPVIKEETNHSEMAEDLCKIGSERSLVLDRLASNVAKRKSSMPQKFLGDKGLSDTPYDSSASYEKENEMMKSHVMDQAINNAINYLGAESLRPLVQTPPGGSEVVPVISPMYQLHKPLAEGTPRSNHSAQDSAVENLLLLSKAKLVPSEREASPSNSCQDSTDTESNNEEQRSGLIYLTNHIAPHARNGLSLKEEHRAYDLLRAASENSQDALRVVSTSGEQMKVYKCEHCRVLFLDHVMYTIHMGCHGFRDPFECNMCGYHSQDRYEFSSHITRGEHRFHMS
- Sequence (Q96SW2 whole entry): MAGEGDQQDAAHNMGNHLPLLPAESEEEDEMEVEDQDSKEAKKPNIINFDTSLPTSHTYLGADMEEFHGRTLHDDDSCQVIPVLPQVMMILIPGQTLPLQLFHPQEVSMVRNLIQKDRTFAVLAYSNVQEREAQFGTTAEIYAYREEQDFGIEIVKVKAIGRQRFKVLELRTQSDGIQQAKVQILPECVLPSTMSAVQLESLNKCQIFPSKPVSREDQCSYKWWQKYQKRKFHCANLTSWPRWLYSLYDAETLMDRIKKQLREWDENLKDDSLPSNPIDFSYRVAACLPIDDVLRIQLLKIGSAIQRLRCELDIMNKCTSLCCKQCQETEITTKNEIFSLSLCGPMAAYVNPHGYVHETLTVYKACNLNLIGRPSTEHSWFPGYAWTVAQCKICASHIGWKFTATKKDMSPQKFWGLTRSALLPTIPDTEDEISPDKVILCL
- Sequence (Q16531 whole entry partner): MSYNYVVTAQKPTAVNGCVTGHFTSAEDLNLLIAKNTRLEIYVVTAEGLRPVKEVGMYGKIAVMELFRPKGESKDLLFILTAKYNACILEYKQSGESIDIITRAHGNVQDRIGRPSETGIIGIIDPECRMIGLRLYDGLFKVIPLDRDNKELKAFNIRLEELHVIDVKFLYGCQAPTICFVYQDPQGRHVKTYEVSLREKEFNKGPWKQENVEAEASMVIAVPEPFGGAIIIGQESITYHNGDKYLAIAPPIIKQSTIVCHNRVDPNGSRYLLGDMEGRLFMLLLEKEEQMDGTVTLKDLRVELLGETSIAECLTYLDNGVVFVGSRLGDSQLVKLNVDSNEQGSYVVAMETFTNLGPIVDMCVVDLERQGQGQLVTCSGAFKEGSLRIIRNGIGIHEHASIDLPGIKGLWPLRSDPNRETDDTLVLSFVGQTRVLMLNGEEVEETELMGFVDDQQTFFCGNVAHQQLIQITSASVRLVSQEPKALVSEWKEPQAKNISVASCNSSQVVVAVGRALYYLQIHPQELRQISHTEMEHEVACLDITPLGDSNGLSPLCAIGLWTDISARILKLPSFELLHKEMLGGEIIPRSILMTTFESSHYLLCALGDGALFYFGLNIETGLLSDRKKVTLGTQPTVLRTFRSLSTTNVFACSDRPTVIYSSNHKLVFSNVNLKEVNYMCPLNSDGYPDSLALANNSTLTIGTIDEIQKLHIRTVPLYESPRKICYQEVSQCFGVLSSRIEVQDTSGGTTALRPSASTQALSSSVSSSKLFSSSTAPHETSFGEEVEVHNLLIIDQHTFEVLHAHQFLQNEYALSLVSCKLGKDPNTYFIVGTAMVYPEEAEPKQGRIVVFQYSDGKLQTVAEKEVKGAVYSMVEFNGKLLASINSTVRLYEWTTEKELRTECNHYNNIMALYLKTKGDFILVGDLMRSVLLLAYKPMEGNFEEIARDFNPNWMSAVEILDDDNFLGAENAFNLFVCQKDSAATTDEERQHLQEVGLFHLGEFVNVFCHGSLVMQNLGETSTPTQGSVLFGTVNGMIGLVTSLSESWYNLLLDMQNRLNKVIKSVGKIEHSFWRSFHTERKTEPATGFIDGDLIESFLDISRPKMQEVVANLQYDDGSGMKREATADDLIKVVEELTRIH
- method.description: Helios Cellular Degradation Assay (Ikaros readout)
- Type: cell-based
- Parameters: endogenous in cells; host or cells: Jurkat
- condition.context: Jurkat cells, 72 h incubation, Ikaros-Alexa488 antibody staining, flow cytometry; read-out: Ikaros Jurkat IC50

| compound | DC50 |
| --- | --- |
| CN1CCc2nc(-c3ccc4c(c3)CN(C3CCC(=O)NC3=O)C4=O)ccc2C1=O (centres unmarked) [Example 92] | ≥ 20 µM |
| COc1cc(C)cc(-c2ccc3c(c2)CN(C2CCC(=O)NC2=O)C3=O)n1 (centres unmarked) [Example 146] | ≥ 20 µM |
| Nc1cc(-c2ccc3c(c2)CN(C2CCC(=O)NC2=O)C3=O)nc2ccccc12 (centres unmarked) [Example 8] | > 20 µM |
| Nc1cc(Cl)cc(-c2ccc3c(c2)CN(C2CCC(=O)NC2=O)C3=O)n1 (centres unmarked) [Example 165] | ≥ 20 µM |
| N#Cc1ccc(-c2ccc3c(c2)CN(C2CCC(=O)NC2=O)C3=O)nc1N (centres unmarked) [Example 166] | ≥ 20 µM |
| O=C1CCC(N2Cc3cc(-c4cc5c(cn4)CCCC5)ccc3C2=O)C(=O)N1 (centres unmarked) [Example 115] | 0.16 µM |
| O=C1CCC(N2Cc3cc(-c4ccc5ccccc5n4)ccc3C2=O)C(=O)N1 (centres unmarked) [Example 1] | > 20 µM |
| O=C1CCC(N2Cc3cc(-c4cc5ccccc5c(C5CC5)n4)ccc3C2=O)C(=O)N1 (centres unmarked) [Example 89] | ≥ 20 µM |
| CCOc1c(-c2ccc3c(c2)CN(C2CCC(=O)NC2=O)C3=O)ncc2ccccc12 (centres unmarked) [Example 85] | 1.82 µM |
| CCn1ncc2c(-c3ccc4c(c3)CN(C3CCC(=O)NC3=O)C4=O)nc(N)nc21 (centres unmarked) [Example 45] | > 20 µM |
| COc1ccc2c(-c3ccc4c(c3)CN(C3CCC(=O)NC3=O)C4=O)nccc2c1 (centres unmarked) [Example 17] | 0.096 µM |
| COC(=O)c1ccc2nc(-c3ccc4c(c3)CN(C3CCC(=O)NC3=O)C4=O)ccc2c1 (centres unmarked) [Example 31] | > 20 µM |
| CCOc1c(-c2ccc3c(c2)CN([C@H]2CCC(=O)NC2=O)C3=O)nc(N)c2ccccc12 [Example 84] | ≥ 20 µM |
| Nc1cc2ccccc2c(-c2ccc3c(c2)CN(C2CCC(=O)NC2=O)C3=O)n1 (centres unmarked) [Example 25] | 8.4 µM |
| O=C1CCC(N2Cc3cc(-c4nc5ccccc5nc4O)ccc3C2=O)C(=O)N1 (centres unmarked) [Example 96] | ≥ 20 µM |
| O=C1CCC(N2Cc3cc(-c4cc(CO)ccn4)ccc3C2=O)C(=O)N1 (centres unmarked) [Example 108] | ≥ 10 µM |
| N#Cc1cnc(-c2ccc3c(c2)CN(C2CCC(=O)NC2=O)C3=O)c2ccccc12 (centres unmarked) [Example 90] | 0.41 µM |
| O=C1CCC(N2Cc3cc(-c4ccc5cccc(Cl)c5n4)ccc3C2=O)C(=O)N1 (centres unmarked) [Example 34] | > 20 µM |
| O=C1CCC(N2Cc3cc(-c4ccc5[nH]cnc5n4)ccc3C2=O)C(=O)N1 (centres unmarked) [Example 139] | ≥ 20 µM |
| Nc1nccc(-c2ccc3c(c2)CN(C2CCC(=O)NC2=O)C3=O)n1 (centres unmarked) [Example 70] | > 20 µM |
| COc1cnc(-c2ccc3c(c2)CN(C2CCC(=O)NC2=O)C3=O)c2ccccc12 (centres unmarked) [Example 103] | ≥ 20 µM |
| O=C1CCC(N2Cc3cc(-c4nc5ccccc5cc4Cl)ccc3C2=O)C(=O)N1 (centres unmarked) [Example 36] | > 20 µM |
| O=C1CCC(N2Cc3cc(-c4cnc5ccccc5n4)ccc3C2=O)C(=O)N1 (centres unmarked) [Example 7] | > 20 µM |
| O=C1CCC(N2Cc3cc(-c4ccc5c(n4)NCCN5)ccc3C2=O)C(=O)N1 (centres unmarked) [Example 118] | ≥ 10 µM |
| O=C1CCC(N2Cc3cc(-c4ncccc4CO)ccc3C2=O)C(=O)N1 (centres unmarked) [Example 107] | ≥ 10 µM |
| Cc1cc(-c2ccc3c(c2)CN(C2CCC(=O)NC2=O)C3=O)nc2ccccc12 (centres unmarked) [Example 24] | > 20 µM |
| N#Cc1cc(N)nc(-c2ccc3c(c2)CN(C2CCC(=O)NC2=O)C3=O)c1 (centres unmarked) [Example 149] | ≥ 10 µM |
| O=C1CCC(N2Cc3cc(-c4ncc(F)c5[nH]ccc45)ccc3C2=O)C(=O)N1 (centres unmarked) [Example 11] | 0.097 µM |
| N#Cc1ccnnc1-c1ccc2c(c1)CN(C1CCC(=O)NC1=O)C2=O (centres unmarked) [Example 76] | > 20 µM |

Data credit: patent US12570671B2
